# System: Enterococcus faecalis
# assay.text: Antibacterial activity against Enterococcus faecalis by two fold serial microbroth dilution method
# Type: functional
As shown below, each of these compounds has a reported MIC value.
assay.readout: MIC (µg/mL)

>>> df
                                   compound          system_tested  observed_measurement
0  CCc1nccn1-c1ccnc(NS(=O)(=O)c2ccc(N)cc2)n1  Enterococcus faecalis                    64
1  Nc1ccc(S(=O)(=O)Nc2nccc(-n3ccc4cc(Br)ccc43)n2)cc1  Enterococcus faecalis                     4
2  Cc1nccn1-c1ccnc(NS(=O)(=O)c2ccc(N)cc2)n1  Enterococcus faecalis                   128
3  Nc1ccc(S(=O)(=O)Nc2nccc(-n3cnc4ccccc43)n2)cc1  Enterococcus faecalis                   256
4  CC(C)c1nccn1-c1ccnc(NS(=O)(=O)c2ccc(N)cc2)n1  Enterococcus faecalis                   128
5   Nc1ccc(S(=O)(=O)Nc2nccc(-n3ccnc3)n2)cc1  Enterococcus faecalis                   128
6  CCn1cc(C(=O)O)c(=O)c2cc(F)c(N3CCNCC3)cc21 [NORFLOXACIN]  Enterococcus faecalis                     4
7  Cc1ccc2c(ccn2-c2ccnc(NS(=O)(=O)c3ccc(N)cc3)n2)c1  Enterococcus faecalis                     8
8  Nc1ccc(S(=O)(=O)Nc2nccc(-n3ccc4cc([N+](=O)[O-])ccc43)n2)cc1  Enterococcus faecalis                     8
9  Cc1ncc([N+](=O)[O-])n1-c1ccnc(NS(=O)(=O)c2ccc(N)cc2)n1  Enterococcus faecalis                   128
